system: SR leukemia; assay: NCI tumour cell line growth inhibition, 48 h
Short version: TGI at least 20 µM is T, less is F.

// known answers, use as guide
1) O=C(/C=C/c1ccc(O)cc1)c1ccc(O)cc1	T
2) CCOC(=O)Nc1sc2c(c1C#N)CCCC2	T
3) Cc1cc(I)cc(CN(CCCN(C)C)C(C)C)c1O	T
4) O=C(Nc1ccc(Oc2ccc(Nc3nc4ccccc4s3)cc2)cc1)Nc1ccc(Cl)c(C(F)(F)F)c1	F
5) COC[C@H]1Cn2cc(-c3nc(Nc4ccnn4C)ncc3C)nc2C(=O)N1Cc1ccc(F)c(F)c1	T

Textbook exercise: given the entry `O=S(=O)(N/N=C/c1cccc(/C=N/NS(=O)(=O)c2ccccc2)c1)c1ccccc1` , state whether its TGI is greater than or equal to 20 µM.
T

Same thing, different compound: `CC(C)[C@@H]1C=C2CC[C@H]3[C@](C)(CN)CCC[C@]3(C)[C@H]2CC1`
F

---

test system: RXF 393 renal; test: NCI tumour cell line growth inhibition, 48 h
Below, each of the molecules is paired with its reported log10(TGI) value.
Field: value | Transform: log10 | Quantity: TGI | Unit: µM

1) Cc1cccc(Cn2c3c(c4cc(O)ccc42)C(=O)c2ccccc2C3=O)c1	1.33
2) COc1ccc2[nH]cc(/C=C(/C)c3ccncc3)c2c1	1.01
3) C[C@]12CCC3C4=C(CCC3C1CCC2=O)C(=O)[C@H]1O[C@H]1C4=O (stereo partly specified)	0.50
4) O=C1c2cc3c(cc2-c2c1c1ccc(F)cc1c(=O)n2C[C@H](O)[C@@H](O)[C@H](O)CO)OCO3	-0.36
5) COc1ccc2nc3cc(Cl)ccc3c(NCCNCC(C)O)c2c1 (stereo unspecified)	0.53

Please look up its log10(TGI): `CC1=C2C(=C[C@@](C)(CO)[C@@H]2O)C(=O)[C@](C)(O)C12CC2`
-1.74

Same thing, different molecule: `Cc1ccc(/C=C/C(=O)CCN(C)C)cc1`
1.62

Same thing, different molecule: `CCN(Cc1ccc(F)cc1)c1cc(Cl)c(CO)c(Cl)c1`
1.33

Same thing, different molecule: `COC(=O)[C@@H](O)[C@](O)(CCC(C)C)C(=O)O[C@@H]1C(OC)=C[C@]23CCCN2CCc2cc4c(cc2[C@H]13)OCO4`
0.73

Same thing, different molecule: `CCCCCC1=CC(=O)C1(Cl)Cl`
1.55

---

Below, each of the molecules is paired with its reported TGI value.
system: OVCAR-5 ovarian; assay: NCI tumour cell line growth inhibition, 48 h

Example entries and their recorded answers appear below.
1) O=C(OCc1ccccc1)N1CCNCCN(C(=O)OCc2ccccc2)CCNCC1	> 100 µM
2) O=C(NCc1ccccc1)c1n[nH][nH]c1=O	> 100 µM
3) COc1cc(-c2ccc3cc(OC)c(OC)c(OC)c3c2)cc(OC)c1OC	> 100 µM
4) CC(=O)O/N=C(/C)c1ccccc1O	> 100 µM
5) COc1ccc(CN2C(=O)/C(=C\c3cc(OC)c(OC)c(OC)c3)c3ccccc32)cc1	6.48 µM
6) CN(C)c1cc(NN=C(c2ccc(O)cc2)c2ccc(O)cc2)c([N+](=O)[O-])cc1[N+](=O)[O-]	32.4 µM
7) S=C(N/N=C(/c1ccccc1)c1ccccn1)N(Cc1ccccn1)Cc1ccccn1	3.37 µM
8) COC(=O)c1c(C)nc2c1cc(O)c1[nH]c(C)c(C)nc12	> 100 µM

Please look up its TGI: `Nc1c(-c2ccc(Cl)c(Cl)c2)c2ccc([N+](=O)[O-])cc2c(=O)n1-c1nc2ccccc2s1`
> 74.2 µM

Same thing, different molecule: CC1SC(c2ccc(F)cc2)N(NC(=O)C(O)c2ccccc2)C1=O (stereo not given)
> 100 µM
